Target: FAP (Homo sapiens)
Construct: the extracellular domain of FAP was cloned with a His-6 tag; made in house
Sequence (Q12884 26-760 limits assumed): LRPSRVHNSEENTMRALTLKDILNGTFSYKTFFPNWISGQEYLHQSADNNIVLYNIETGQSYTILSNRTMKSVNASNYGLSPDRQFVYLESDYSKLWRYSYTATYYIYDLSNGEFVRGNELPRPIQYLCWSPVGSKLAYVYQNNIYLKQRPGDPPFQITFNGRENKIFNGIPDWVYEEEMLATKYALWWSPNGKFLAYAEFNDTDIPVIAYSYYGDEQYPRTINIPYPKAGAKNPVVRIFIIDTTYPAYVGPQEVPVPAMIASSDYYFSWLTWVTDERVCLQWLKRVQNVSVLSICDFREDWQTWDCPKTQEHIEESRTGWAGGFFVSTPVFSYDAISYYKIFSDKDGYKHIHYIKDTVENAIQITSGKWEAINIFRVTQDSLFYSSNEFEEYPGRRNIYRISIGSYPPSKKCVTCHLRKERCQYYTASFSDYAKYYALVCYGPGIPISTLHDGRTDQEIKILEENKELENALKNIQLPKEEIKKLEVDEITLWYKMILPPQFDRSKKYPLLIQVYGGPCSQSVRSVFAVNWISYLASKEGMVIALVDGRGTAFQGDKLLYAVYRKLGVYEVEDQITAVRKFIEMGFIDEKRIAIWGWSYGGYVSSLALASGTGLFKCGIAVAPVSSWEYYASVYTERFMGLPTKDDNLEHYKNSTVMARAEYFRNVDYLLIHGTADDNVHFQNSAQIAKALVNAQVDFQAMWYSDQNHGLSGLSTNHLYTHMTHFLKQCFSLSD
Assay: LC-MS/MS cleavage map of FAP digest of 100 kDa recombinant human gelatin
Format: biochemical
Details: 100 kDa gelatin digest
So basically: is Occurences under 2? Then t. Not under? Then f.

- G.PPGPAGAPGDKGESGP.S: FAP cleavage fragment, 100 kDa recombinant human gelatin: f
- P.VGPPGPPGPPGPPGPP.: C-terminal FAP cleavage fragment, 100 kDa recombinant human gelatin (PVGPPGPPGPPGPPGPP): f
- P.AGPTGARGAPGDRGEPGPPGP.A: FAP cleavage fragment, 100 kDa recombinant human gelatin: f
- P.AGPPGAPGAPGAPGPVGPAGKSGDRGETGP.A: FAP cleavage fragment, 100 kDa recombinant human gelatin: f
- P.KGAAGEPGKAGERGVPGPPGAVGPAGKDGEAGAQGPPGP.A: FAP cleavage fragment, 100 kDa recombinant human gelatin: t

Does the reported Occurences of the following substance sit strictly below 2? G.PTGARGAPGDRGEPGPPGP.A: FAP cleavage fragment, 100 kDa recombinant human gelatin
f

Does the reported Occurences of the following substance sit strictly below 2? P.AGPPGPIGNVGAPGAKGARGSAGPPGATGFPGAAGRVGPPGP.S: FAP cleavage fragment, 100 kDa recombinant human gelatin
f

###

Listing of entries alongside the reported Percentage.
Biological target: FAP (Homo sapiens)
Construct: the extracellular domain of FAP was cloned with a His-6 tag; made in house
Sequence (Q12884 26-760 limits assumed): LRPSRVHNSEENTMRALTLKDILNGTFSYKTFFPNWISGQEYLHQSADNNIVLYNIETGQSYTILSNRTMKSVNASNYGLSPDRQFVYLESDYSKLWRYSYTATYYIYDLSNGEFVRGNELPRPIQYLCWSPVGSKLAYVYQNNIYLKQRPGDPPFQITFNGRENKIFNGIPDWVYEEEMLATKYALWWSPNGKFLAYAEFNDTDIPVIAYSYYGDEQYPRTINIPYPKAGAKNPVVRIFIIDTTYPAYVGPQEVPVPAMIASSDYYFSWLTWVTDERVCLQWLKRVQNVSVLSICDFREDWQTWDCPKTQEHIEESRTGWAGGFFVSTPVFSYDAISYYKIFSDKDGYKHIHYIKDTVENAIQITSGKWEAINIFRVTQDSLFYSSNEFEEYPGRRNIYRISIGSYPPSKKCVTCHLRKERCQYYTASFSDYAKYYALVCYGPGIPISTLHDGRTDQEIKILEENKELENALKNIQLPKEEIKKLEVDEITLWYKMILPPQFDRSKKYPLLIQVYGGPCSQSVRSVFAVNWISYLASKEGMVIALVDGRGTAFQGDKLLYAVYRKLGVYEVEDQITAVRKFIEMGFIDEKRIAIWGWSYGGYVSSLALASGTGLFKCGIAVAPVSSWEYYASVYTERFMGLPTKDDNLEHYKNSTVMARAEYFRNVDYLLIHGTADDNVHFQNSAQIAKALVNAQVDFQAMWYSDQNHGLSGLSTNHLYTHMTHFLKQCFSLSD
Assay: LC-MS/MS cleavage map of FAP digest of 100 kDa recombinant human gelatin
Type: biochemical
Conditions: 100 kDa gelatin digest; share of all occurrences
Experimental: Human collagen I (Becton Dickinson, Franklin Lakes, N.J.) and recombinant human gelatins of 100 KDa and 8.5 KDa (Fibrogen, San Francisco, Calif.) were dissolved in reaction buffer to a final concentration of 100-300 μg/ml. 0.5-1 μg of FAP was added per 100 μgs of protein substrate. […] To identify the most preferentially cleaved sites, we relatively quantified the abundance of each of the identified peptides by integrating the ion current generated by each peptide throughout the chromatogram. […]

* P.AGPPGPIGNVGAPGAKGARGSAGPPGATGFPGAAGRVGPPGP.S: FAP cleavage fragment, 100 kDa recombinant human gelatin | 1.43
* P.VGPPGPPGPP.G: FAP cleavage fragment, 100 kDa recombinant human gelatin | 1.43
* P.AGQDGRPGPPGPPGARGQAG.V: FAP cleavage fragment of 100 kDa and 8.5 kDa recombinant human gelatin, MH+ 1799.89 | 0.48

Field: next substance
What is its Percentage for FAP (Homo sapiens)? Entry: P.VGPPGPPGPPGPPGPP.: C-terminal FAP cleavage fragment, 100 kDa recombinant human gelatin (PVGPPGPPGPPGPPGPP)
9.05

###

Molecular target: FAP (Homo sapiens)
Construct: the extracellular domain of FAP was cloned with a His-6 tag; made in house
Sequence (Q12884 26-760 limits assumed): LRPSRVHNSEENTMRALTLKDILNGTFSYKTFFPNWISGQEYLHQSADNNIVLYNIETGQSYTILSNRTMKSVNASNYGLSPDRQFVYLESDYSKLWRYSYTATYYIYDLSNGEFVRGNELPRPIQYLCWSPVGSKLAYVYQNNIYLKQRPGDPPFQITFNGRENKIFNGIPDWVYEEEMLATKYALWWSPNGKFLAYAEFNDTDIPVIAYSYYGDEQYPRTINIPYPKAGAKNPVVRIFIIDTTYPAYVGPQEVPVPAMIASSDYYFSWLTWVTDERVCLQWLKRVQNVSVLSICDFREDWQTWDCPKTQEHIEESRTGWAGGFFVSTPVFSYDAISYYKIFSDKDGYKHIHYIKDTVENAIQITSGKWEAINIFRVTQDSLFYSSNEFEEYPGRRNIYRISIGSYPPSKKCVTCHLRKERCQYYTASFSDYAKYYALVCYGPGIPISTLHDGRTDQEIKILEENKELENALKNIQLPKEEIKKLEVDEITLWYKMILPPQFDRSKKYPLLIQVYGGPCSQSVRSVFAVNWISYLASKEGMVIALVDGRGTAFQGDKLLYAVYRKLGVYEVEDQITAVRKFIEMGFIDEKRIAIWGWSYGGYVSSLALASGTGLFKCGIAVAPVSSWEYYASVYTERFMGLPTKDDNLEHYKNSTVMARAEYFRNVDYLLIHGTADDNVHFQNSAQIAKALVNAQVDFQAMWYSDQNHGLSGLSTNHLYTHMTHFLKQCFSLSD
Assay: LC-MS/MS cleavage map of FAP digest of 100 kDa recombinant human gelatin
Assay type: biochemical
Conditions: 100 kDa gelatin digest; share of all occurrences
Quantity: Percentage

Looking for the measured Percentage of A.PGAPGPVGPAGKSGDRGETGP.A: FAP cleavage fragment, 100 kDa recombinant human gelatin , can you help?
0.95

###

Target: FAP (Homo sapiens, UniProt Q12884)
Construct: the extracellular domain of FAP was cloned with a His-6 tag; made in house
Sequence (Q12884 26-760 limits assumed): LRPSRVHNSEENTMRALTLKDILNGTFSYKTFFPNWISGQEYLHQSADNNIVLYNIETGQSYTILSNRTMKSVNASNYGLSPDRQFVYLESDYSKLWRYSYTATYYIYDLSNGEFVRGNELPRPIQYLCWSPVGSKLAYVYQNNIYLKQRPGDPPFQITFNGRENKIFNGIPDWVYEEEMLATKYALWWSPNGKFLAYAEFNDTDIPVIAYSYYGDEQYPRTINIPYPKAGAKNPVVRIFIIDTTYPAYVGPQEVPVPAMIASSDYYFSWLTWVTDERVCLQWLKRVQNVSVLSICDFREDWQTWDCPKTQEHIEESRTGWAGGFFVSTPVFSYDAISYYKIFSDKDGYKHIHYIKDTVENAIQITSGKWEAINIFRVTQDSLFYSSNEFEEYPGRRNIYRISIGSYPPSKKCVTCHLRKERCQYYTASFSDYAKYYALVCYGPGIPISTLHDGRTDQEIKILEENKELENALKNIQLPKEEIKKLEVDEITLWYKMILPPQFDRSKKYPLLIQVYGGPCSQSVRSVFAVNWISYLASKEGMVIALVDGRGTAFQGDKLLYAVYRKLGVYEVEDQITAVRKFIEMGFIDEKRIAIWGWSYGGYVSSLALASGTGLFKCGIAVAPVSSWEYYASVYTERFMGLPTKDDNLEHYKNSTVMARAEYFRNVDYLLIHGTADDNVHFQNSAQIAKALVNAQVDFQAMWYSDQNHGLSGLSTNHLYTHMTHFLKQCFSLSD
Test: LC-MS/MS cleavage map of FAP digest of 100 kDa recombinant human gelatin
Type: biochemical
Conditions: 100 kDa gelatin digest
Listing of entries alongside the reported Occurences.
Field format: numeric only.

- P.QGFQGPPGEPGEPGASGP.M: FAP cleavage fragment, 100 kDa recombinant human gelatin: 2

Field: next substance
Looking for the measured Occurences of P.PGPAGAPGDKGESGP.S: FAP cleavage fragment, 100 kDa recombinant human gelatin , can you help?
2
